The reported measurements were obtained from patent US8067460B2.

- Target Or Test System: Kv1.5 (Homo sapiens)
- Assay Procedure: Inhibitory effect on K+ channels (Appendix A): Kv1.5
- Format: cell-based
- Study Conditions: Hill coefficient printed beside the Kv1.5 EC50
Reported Metric: nH (Kv1.5)
Numbers only.

O=c1ccc2c(OCCCCOc3cccc4ccccc34)c3ccoc3cc2o1 :: 2.0
O=c1ccc2c(OCCCOc3ccc(Cl)cc3)c3ccoc3cc2o1 :: 2.0

Would you mind listing nH (Kv1.5) for each of the following compounds?
1. O=c1ccc2c(OCCCCOc3ccccc3)c3ccoc3cc2o1
2. O=c1ccc2c(OCCCCOc3ccc4ccccc4c3)c3ccoc3cc2o1

-- reply
2.3
2.0

----------
- Target Or Test System: Kv1.7 (Homo sapiens)
- Sequence (Q96RP8 whole entry): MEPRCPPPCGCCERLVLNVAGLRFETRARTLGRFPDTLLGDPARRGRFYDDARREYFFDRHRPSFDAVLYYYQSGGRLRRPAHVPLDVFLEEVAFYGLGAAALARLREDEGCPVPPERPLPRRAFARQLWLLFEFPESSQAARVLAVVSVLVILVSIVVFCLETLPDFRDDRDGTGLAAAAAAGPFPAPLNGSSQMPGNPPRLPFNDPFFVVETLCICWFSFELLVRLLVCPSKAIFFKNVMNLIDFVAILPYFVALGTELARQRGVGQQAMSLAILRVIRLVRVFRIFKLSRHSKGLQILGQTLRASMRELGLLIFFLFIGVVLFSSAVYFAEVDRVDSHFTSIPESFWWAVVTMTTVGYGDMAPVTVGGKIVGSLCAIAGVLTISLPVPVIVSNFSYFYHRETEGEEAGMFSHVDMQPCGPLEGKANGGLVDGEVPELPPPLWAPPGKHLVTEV
- Assay Procedure: Inhibitory effect on K+ channels (Appendix A): Kv1.7
Reported Metric: pEC50
Give bare numbers, as −log10 of the molar value.

// sample "O=c1ccc2c(OCCCCOc3ccccc3)c3ccoc3cc2o1" , its pEC50 was 7.01

----------
- Target Or Test System: Kv1.5 (Homo sapiens)
- Assay Procedure: Inhibitory effect on K+ channels (Appendix A): Kv1.5
- Type: cell-based
- Study Conditions: cells unit inferred
Reported Metric: EC50 (nM)
Answers are plain numbers, in nM.

GET /values?item= O=c1ccc2c(OCCCOc3ccc(Cl)cc3)c3ccoc3cc2o1 [AS132] &system= Kv1.5 (Homo sapiens) returns EC50: 25

----------
- Target Or Test System: UniProt P22460
- Assay Procedure: Inhibitory effect on K+ channels (Appendix A): Kv1.5
- Format: cell-based
pEC50: −log10 of the molar value.
Please enter Fulfilled where pEC50 is greater than or equal to 7, and Not fulfilled where it is lower.

// known answers, use as guide
O=c1ccc2c(OCCCCOc3cccc4ccccc34)c3ccoc3cc2o1 :: Fulfilled
Cc1ccc(OCCCCOc2c3ccoc3cc3oc(=O)ccc23)cc1 :: Fulfilled
COc1ccc(OCCCCOc2c3ccoc3cc3oc(=O)ccc23)cc1 :: Fulfilled
Cc1ccc(OCCCCOc2c3ccoc3cc3oc(=O)ccc23)c([N+](=O)[O-])c1 :: Not fulfilled
O=c1ccc2c(OCCCCOCc3ccccc3)c3ccoc3cc2o1 :: Not fulfilled

-- ask # check: pEC50 of "COc1cc([N+](=O)[O-])ccc1OCCCCOc1c2ccoc2cc2oc(=O)ccc12" is greater than or equal to 7
-- reply Not fulfilled

----------
Give measured EC50 for each item. Keep answers brief.
- Target Or Test System: Kv1.1 (Homo sapiens)
- Sequence (Q09470 whole entry): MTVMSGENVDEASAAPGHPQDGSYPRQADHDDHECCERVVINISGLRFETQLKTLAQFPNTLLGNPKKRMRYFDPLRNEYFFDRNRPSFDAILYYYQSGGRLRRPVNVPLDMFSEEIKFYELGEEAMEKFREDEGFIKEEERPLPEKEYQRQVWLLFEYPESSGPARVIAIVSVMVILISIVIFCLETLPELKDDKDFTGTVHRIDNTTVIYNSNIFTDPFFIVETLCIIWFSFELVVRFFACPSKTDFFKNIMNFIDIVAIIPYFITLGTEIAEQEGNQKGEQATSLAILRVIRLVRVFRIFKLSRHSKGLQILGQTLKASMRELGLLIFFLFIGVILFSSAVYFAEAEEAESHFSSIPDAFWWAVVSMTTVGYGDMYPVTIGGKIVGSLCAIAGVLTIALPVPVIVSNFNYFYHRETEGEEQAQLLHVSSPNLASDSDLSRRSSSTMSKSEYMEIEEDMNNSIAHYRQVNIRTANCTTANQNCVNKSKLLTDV
- Assay Procedure: Inhibitory effect on K+ channels (Appendix A): Kv1.1
- Assay type: cell-based
In your response, the unit should come after the numeric value.

O=c1ccc2c(OCCCOc3ccccc3)c3ccoc3cc2o1 [PAP 3] :: 80 nM
O=c1ccc2c(OCCOCc3ccccc3)c3ccoc3cc2o1 :: 175 nM

// moving on: another record for EC50
GET /values?item= O=c1ccc2c(OCCCCOc3ccccc3)c3ccoc3cc2o1 [PAP 1] &system= Kv1.1 (Homo sapiens) returns EC50: 65 nM

----------
- Target Or Test System: UniProt:P22460
- Assay Procedure: Inhibitory effect on K+ channels (Appendix A): Kv1.5
- Format: cell-based
Assign classes using reported EC50 values and the ranges category 1: < 0.04 µM; category 2: ≥ 0.04 µM and < 0.1 µM; category 3: ≥ 0.1 µM, please.

O=c1ccc2c(OCCCCOc3ccc4ccccc4c3)c3ccoc3cc2o1 :: category 2
O=c1ccc2c(OCCCCOc3cccc(C(F)(F)F)c3)c3ccoc3cc2o1 :: category 3
O=c1ccc2c(OCCCCOc3ccc(Oc4ccccc4)cc3)c3ccoc3cc2o1 :: category 3
COc1cccc(OCCCCOc2c3ccoc3cc3oc(=O)ccc23)c1 :: category 2

Next, consider the following molecule.
-- ask Bin this entry: "O=c1ccc2c(OCCCOCc3ccccc3)c3ccoc3cc2o1"
-- reply category 3

----------
Give measured nH (Kv1.3) for each item. Keep answers brief.
- Target Or Test System: UniProtKB P16390
- Assay Procedure: Inhibitory effect on K+ channels (Appendix A): Kv1.3
- Format: cell-based
- Study Conditions: Hill coefficient printed beside the Kv1.3 EC50
One number for each entry.

Would you mind listing nH (Kv1.3) for each of the following compounds?
1. COc1ccc(OCCCCOc2c3ccoc3cc3oc(=O)ccc23)cc1 [AS67]
2. O=c1ccc2c(OCCCCOCc3ccc(F)cc3)c3ccoc3cc2o1
3. O=c1ccc2c(OCCCCOc3ccc4ccccc4c3)c3ccoc3cc2o1 [AS118]

-- reply
[2.1, 2, 2.1]

----------
- Target Or Test System: Kv1.3 (Mus musculus, UniProt P16390)
- Sequence (P16390 whole entry): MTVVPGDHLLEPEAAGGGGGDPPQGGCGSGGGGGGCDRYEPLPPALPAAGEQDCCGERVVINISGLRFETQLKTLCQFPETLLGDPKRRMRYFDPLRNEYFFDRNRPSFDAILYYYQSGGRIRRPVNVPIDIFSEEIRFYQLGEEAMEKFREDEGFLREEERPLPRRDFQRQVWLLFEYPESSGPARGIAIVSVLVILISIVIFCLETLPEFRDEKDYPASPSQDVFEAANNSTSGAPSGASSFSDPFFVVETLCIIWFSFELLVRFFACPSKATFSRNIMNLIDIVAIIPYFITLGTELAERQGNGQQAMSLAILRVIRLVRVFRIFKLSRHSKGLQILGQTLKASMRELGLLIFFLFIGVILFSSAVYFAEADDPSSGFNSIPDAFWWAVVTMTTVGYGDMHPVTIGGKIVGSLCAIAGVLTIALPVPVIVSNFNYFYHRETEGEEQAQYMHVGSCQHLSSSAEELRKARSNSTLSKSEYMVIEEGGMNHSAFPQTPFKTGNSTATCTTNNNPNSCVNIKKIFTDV
- Assay Procedure: Inhibitory effect on K+ channels (Appendix A): Kv1.3
- Assay type: cell-based
- Study Conditions: Hill coefficient printed beside the Kv1.3 EC50
nH (Kv1.3) strictly under 2 means Met; at 2 or over means Not met.

// known answers, use as guide
O=c1ccc2c(OCCCCOc3ccc([N+](=O)[O-])cc3)c3ccoc3cc2o1 :: Met
O=c1ccc2c(OCCCCCOc3ccccc3)c3ccoc3cc2o1 :: Not met
Cc1ccc(OCCCCOc2c3ccoc3cc3oc(=O)ccc23)cc1 :: Not met
CCc1ccc(OCCCCCOc2c3ccoc3cc3oc(=O)ccc23)cc1 :: Not met

-- ask # check: nH (Kv1.3) < 2 for "O=c1ccc2c(OCCCCOc3ccc(F)cc3)c3ccoc3cc2o1"
-- reply Not met

-- ask # check: nH (Kv1.3) < 2 for "COc1cc(OC)cc(OCCCOc2c3ccoc3cc3oc(=O)ccc23)c1"
-- reply Not met

-- ask # check: nH (Kv1.3) < 2 for "O=c1ccc2c(OCCCCOc3ccccc3)c3ccoc3cc2o1"
-- reply Met

----------
- Target Or Test System: Kv1.5 (Homo sapiens)
- Assay Procedure: Inhibitory effect on K+ channels (Appendix A): Kv1.5
- Assay type: cell-based
Reported Metric: EC50 (nM)
One number for each entry, in nM.

O=c1ccc2c(OCCCCSc3ncccn3)c3ccoc3cc2o1 :: 159
COc1ccc2sc(SCCCCOc3c4ccoc4cc4oc(=O)ccc34)nc2c1 :: 100
O=c1ccc2c(OCCOCc3ccccc3)c3ccoc3cc2o1 :: 110

// sample O=c1ccc2c(OCCCCOc3ccc([N+](=O)[O-])cc3)c3ccoc3cc2o1 [AS78] , its EC50 was 105

----------
Give measured EC50 for each item. Keep answers brief.
- Target Or Test System: Kv1.5 (Homo sapiens, UniProt P22460)
- Sequence (P22460 whole entry): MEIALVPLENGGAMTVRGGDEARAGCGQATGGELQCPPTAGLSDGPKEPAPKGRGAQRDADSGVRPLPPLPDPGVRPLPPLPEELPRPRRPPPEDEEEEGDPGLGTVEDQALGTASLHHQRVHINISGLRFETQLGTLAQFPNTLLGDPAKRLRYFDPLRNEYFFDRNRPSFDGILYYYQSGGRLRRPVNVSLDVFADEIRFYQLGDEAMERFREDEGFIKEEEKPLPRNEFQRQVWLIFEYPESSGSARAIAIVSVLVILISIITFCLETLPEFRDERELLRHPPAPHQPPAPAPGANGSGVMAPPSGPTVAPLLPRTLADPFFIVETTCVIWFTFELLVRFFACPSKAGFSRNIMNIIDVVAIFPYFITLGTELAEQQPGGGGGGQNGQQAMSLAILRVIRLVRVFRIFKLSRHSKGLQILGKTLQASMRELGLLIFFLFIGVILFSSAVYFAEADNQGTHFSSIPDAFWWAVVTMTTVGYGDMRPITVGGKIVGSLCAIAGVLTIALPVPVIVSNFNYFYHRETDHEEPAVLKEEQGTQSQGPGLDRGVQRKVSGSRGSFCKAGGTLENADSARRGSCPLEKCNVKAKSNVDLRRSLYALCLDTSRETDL
- Assay Procedure: Inhibitory effect on K+ channels (Appendix A): Kv1.5
- Format: cell-based
Numbers only, in nM.

Some compounds with known EC50 results, for comparison:
O=c1ccc2c(OCCCOc3ccccc3)c3ccoc3cc2o1 [PAP 3] :: 100
O=c1ccc2c(OCCCCOc3ccc(Cl)cc3)c3ccoc3cc2o1 [AS84] :: 10
O=c1ccc2c(OCCCCOc3ccccc3)c3ccoc3cc2o1 [PAP 1] :: 45
COc1cc(OC)cc(OCCCCOc2c3ccoc3cc3oc(=O)ccc23)c1 [AS69] :: 150

// moving on: another record for EC50
// sample "O=c1ccc2c(OCCCCOc3ccc(F)cc3)c3ccoc3cc2o1" , its EC50 was 12

----------
- Target Or Test System: Kv1.3 (Mus musculus)
- Assay Procedure: Inhibitory effect on K+ channels (Appendix A): Kv1.3
- Format: cell-based
- Study Conditions: Hill coefficient printed beside the Kv1.3 EC50
Reported Metric: nH (Kv1.3)
Give bare numbers.

Some compounds with known nH (Kv1.3) results, for comparison:
O=c1ccc2c(OCCCCOc3ccc(Cl)cc3)c3ccoc3cc2o1 :: 2.0
O=c1ccc2c(OCCCCOc3cccc4ccccc34)c3ccoc3cc2o1 :: 2.0

// moving on: another record for nH (Kv1.3)
// sample "O=c1ccc2c(OCCCCOc3cccc(C(F)(F)F)c3)c3ccoc3cc2o1" , its nH (Kv1.3) was 2.0
